// provenance: patent US20260308157A1

molecular target: activated catalytic domain of protein ERK5 (Homo sapiens); construct: purchased CarnaBiosciences #04-146; assay: Cell-Free Assay of ERK5 Inhibition (Time-Resolved Forster Resonance Energy Transfer); type: biochemical; conditions: ERK5 4 nM, 1 mM ATP, 1 μM biotinylated 4EBP1 peptide, 30 min at 37° C.; TR-FRET; mean where repeated
Each entry falls into one class according to its IC50; the ranges are A = under 100 nM, B = from 100 nM up to 400 nM, C = 400 nM and over

[
  {
    "compound": "O=C(c1ccc(OC(F)(F)F)cc1)N1CCC(c2c[nH]c3ncc(N4CCC(F)(F)CC4)nc23)CC1",
    "subject-of-test": "activated catalytic domain of protein ERK5 (Homo sapiens)",
    "answer-label": "C"
  },
  {
    "compound": "Nc1cc(OC(F)(F)F)ccc1C(=O)N1CCC(c2c[nH]c3ncc(OC4COC4)nc23)CC1",
    "subject-of-test": "activated catalytic domain of protein ERK5 (Homo sapiens)",
    "answer-label": "C"
  },
  {
    "compound": "CN1CCC(c2cnc3[nH]cc(C4CCN(C(=O)c5ccc(S(F)(F)(F)(F)F)cc5N)CC4)c3n2)CC1",
    "subject-of-test": "activated catalytic domain of protein ERK5 (Homo sapiens)",
    "answer-label": "A"
  },
  {
    "compound": "O=C(c1ccc(S(F)(F)(F)(F)F)cc1)N1CCC(c2c[nH]c3ncc(C4CCN(C5CC5)CC4)nc23)CC1",
    "subject-of-test": "activated catalytic domain of protein ERK5 (Homo sapiens)",
    "answer-label": "B"
  },
  {
    "compound": "Nc1cc(OC(F)(F)F)ccc1C(=O)N1CCC(c2c[nH]c3ncc(NC4CCOC4)nc23)CC1 (single isomer, unassigned; isomer 2) [Example 35]",
    "subject-of-test": "activated catalytic domain of protein ERK5 (Homo sapiens)",
    "answer-label": "B"
  },
  {
    "compound": "Nc1cc(OC(F)(F)F)ccc1C(=O)N1CCC(c2c[nH]c3ncc(NC4COC4)nc23)CC1",
    "subject-of-test": "activated catalytic domain of protein ERK5 (Homo sapiens)",
    "answer-label": "C"
  },
  {
    "compound": "COCCCc1cnc2[nH]cc(C3CCN(C(=O)c4ccc(OC(F)(F)F)cc4N)CC3)c2n1",
    "subject-of-test": "activated catalytic domain of protein ERK5 (Homo sapiens)",
    "answer-label": "B"
  },
  {
    "compound": "Nc1cc(OC(F)(F)F)ccc1C(=O)N1CCC(c2c[nH]c3ncc(NC4CCOC4)nc23)CC1 (racemic) [Example 37]",
    "subject-of-test": "activated catalytic domain of protein ERK5 (Homo sapiens)",
    "answer-label": "A"
  },
  {
    "compound": "Nc1cc(OC(F)(F)F)ccc1C(=O)N1CCC(c2c[nH]c3ncc(C4CCOC4)nc23)CC1 (single isomer, unassigned) [Example 13]",
    "subject-of-test": "activated catalytic domain of protein ERK5 (Homo sapiens)",
    "answer-label": "A"
  },
  {
    "compound": "Nc1cc(OC(F)(F)F)ccc1C(=O)N1CCC(c2c[nH]c3ncc(C4CCOCC4)nc23)CC1",
    "subject-of-test": "activated catalytic domain of protein ERK5 (Homo sapiens)",
    "answer-label": "A"
  },
  {
    "compound": "O=C(c1ccc(C(F)(F)C(F)(F)F)cc1)N1CCC(c2c[nH]c3ncc(C4CCOCC4)nc23)CC1",
    "subject-of-test": "activated catalytic domain of protein ERK5 (Homo sapiens)",
    "answer-label": "C"
  }
]

---

Target: activated catalytic domain of protein ERK5 (Homo sapiens, UniProt Q13164)
Construct: purchased CarnaBiosciences #04-146
Assay: Cell-Free Assay of ERK5 Inhibition (Time-Resolved Forster Resonance Energy Transfer)
Format: biochemical
Conditions: ERK5 4 nM, 1 mM ATP, 1 μM biotinylated 4EBP1 peptide, 30 min at 37° C.; TR-FRET; mean where repeated
Description: Two assays were performed to assess the ERK5 inhibitory activity of compounds of the Examples, a cell-based assay and a cell-free biochemical assay. Where repeat measurements were taken, the value reported is a mean average. Cell-Free Assay of ERK5 Inhibition An assay was performed to measure the capacity of each compound to inhibit ERK5 enzymatic activity. Compound potency was evaluated by Time-Resolved Forster Resonance Energy Transfer (FRET system). […]
# IC50 listing for each entry below

[
  {
    "molecule": "O=C(C1CCCCC1)N1CCC(c2c[nH]c3ncc(C4CCOCC4)nc23)CC1 [Example 23]",
    "IC50 / nM": 13300
  },
  {
    "molecule": "O=C(c1ccc(OC(F)(F)F)cc1)N1CCC(c2c[nH]c3ncc(C4CCCCC4)nc23)CC1 [Example 8]",
    "IC50 / nM": 25900
  },
  {
    "molecule": "O=C(c1ccc(S(F)(F)(F)(F)F)cc1F)N1CCC(c2c[nH]c3ncc(C4CCOCC4)nc23)CC1 [Example 26]",
    "IC50 / nM": 624
  },
  {
    "molecule": "O=C(c1ccc(OC(F)(F)F)cc1)N1CCC(c2c[nH]c3ncc(C4CCOC4)nc23)CC1 (racemic) [Example 5]",
    "IC50 / nM": 212
  },
  {
    "molecule": "Nc1cc(OC(F)(F)F)ccc1C(=O)N1CCC(c2c[nH]c3ncc(C4CCN(C5CC5)CC4)nc23)CC1 [Example 10]",
    "IC50 / nM": 23
  },
  {
    "molecule": "O=C(c1ccc(OC(F)(F)F)cc1)N1CCC(c2c[nH]c3ncc(C4CCN(C5CC5)CC4)nc23)CC1 [Example 11]",
    "IC50 / nM": 76
  },
  {
    "molecule": "O=C(c1ccc(OC(F)(F)F)cc1)N1CCC(c2c[nH]c3ncc(C4CCOCC4)nc23)CC1 [Example 3]",
    "IC50 / nM": 172
  }
]

---

# IC50 listing for each entry below
target: Cellular ERK5 Activity (Homo sapiens); construct: MEF2-response-element luciferase reporter (pGreenFire1); experiment: Inhibition of Cellular ERK5 Activity (cell-based assay, MEF2 luciferase reporter in SN12C cells); settings: renal cancer cell line SN12C, doxycycline-induced MEK5DD, 0.3-10000 nM, mean where repeated
Sequence (Q13164 whole entry): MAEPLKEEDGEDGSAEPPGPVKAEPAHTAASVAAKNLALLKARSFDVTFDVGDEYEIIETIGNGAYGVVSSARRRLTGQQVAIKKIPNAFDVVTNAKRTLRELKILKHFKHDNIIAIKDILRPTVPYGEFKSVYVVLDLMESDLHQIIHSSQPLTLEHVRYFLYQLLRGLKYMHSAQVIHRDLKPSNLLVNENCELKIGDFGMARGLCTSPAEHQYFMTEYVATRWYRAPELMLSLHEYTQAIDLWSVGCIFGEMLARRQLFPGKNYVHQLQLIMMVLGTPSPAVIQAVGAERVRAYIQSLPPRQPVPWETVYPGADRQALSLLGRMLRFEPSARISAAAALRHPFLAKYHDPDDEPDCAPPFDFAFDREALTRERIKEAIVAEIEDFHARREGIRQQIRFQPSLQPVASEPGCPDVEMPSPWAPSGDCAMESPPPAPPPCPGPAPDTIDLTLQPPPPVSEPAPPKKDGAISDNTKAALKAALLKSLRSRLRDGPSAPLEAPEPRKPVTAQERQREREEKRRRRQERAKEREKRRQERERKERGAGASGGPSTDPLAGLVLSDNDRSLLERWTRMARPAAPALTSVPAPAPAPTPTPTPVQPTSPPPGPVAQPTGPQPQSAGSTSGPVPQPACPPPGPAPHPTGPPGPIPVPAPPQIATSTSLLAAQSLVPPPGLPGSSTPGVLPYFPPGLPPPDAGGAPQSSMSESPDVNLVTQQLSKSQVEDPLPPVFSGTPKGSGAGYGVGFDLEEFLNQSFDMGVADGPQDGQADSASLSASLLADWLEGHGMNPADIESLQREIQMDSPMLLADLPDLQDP

[
  {
    "compound": "Nc1cc(S(F)(F)(F)(F)F)ccc1C(=O)N1CCC(c2c[nH]c3ncc(C4CCOCC4)nc23)C1 (racemic)",
    "IC50 / nM": 357
  },
  {
    "compound": "CN1CCN(c2cnc3[nH]cc(C4CCN(C(=O)c5ccc(OC(F)(F)F)cc5)CC4)c3n2)CC1",
    "IC50 / nM": 86
  },
  {
    "compound": "Nc1cc(OC(F)(F)F)ccc1C(=O)N1CCC(c2c[nH]c3ncc(C4CCCCC4)nc23)CC1",
    "IC50 / nM": 156
  },
  {
    "compound": "O=C(c1ccc(S(F)(F)(F)(F)F)cc1)N1CCC(c2c[nH]c3ncc(C4CCOCC4)nc23)CC1",
    "IC50 / nM": 140
  },
  {
    "compound": "Nc1cc(OC(F)(F)F)ccc1C(=O)N1CCC(c2c[nH]c3ncc(OC4COC4)nc23)CC1",
    "IC50 / nM": 272
  },
  {
    "compound": "O=C(c1ccc(OC(F)(F)F)cc1)N1CCC(c2c[nH]c3ncc(C4CCOCC4)nc23)CC1",
    "IC50 / nM": 41
  },
  {
    "compound": "O=C(c1ccc(C(O)(C(F)(F)F)C(F)(F)F)cc1)N1CCC(c2c[nH]c3ncc(C4CCOCC4)nc23)CC1",
    "IC50 / nM": 480
  },
  {
    "compound": "Nc1cc(S(F)(F)(F)(F)F)ccc1C(=O)N1CCC(c2c[nH]c3ncc(C4CCOCC4)nc23)CC1",
    "IC50 / nM": 34
  },
  {
    "compound": "O=C(c1ccc(OC(F)(F)F)cc1)N1CCC(c2c[nH]c3ncc(NC4CCOC4)nc23)CC1 (racemic) [Example 36]",
    "IC50 / nM": 124
  },
  {
    "compound": "Nc1cc(OC(F)(F)F)ccc1C(=O)N1CCC(c2c[nH]c3ncc(NC4CCOC4)nc23)CC1 (single isomer, unassigned; isomer 2) [Example 35]",
    "IC50 / nM": 246
  },
  {
    "compound": "O=C(c1ccc(S(F)(F)(F)(F)F)cc1)N1CCC(c2c[nH]c3ncc(C4CCN(C5CC5)CC4)nc23)CC1",
    "IC50 / nM": 201
  },
  {
    "compound": "O=C(c1ccc(OC(F)(F)F)cc1)N1CCC(c2c[nH]c3ncc(NC4CCOC4)nc23)CC1 (single isomer, unassigned; isomer 1) [Example 32]",
    "IC50 / nM": 79
  },
  {
    "compound": "CN1CCC(c2cnc3[nH]cc(C4CCN(C(=O)c5ccc(S(F)(F)(F)(F)F)cc5N)CC4)c3n2)CC1",
    "IC50 / nM": 25
  },
  {
    "compound": "Nc1cc(OC(F)(F)F)ccc1C(=O)N1CCC(c2c[nH]c3ncc(O[C@@H]4CCOC4)nc23)CC1",
    "IC50 / nM": 190
  },
  {
    "compound": "O=C(C1CCCCC1)N1CCC(c2c[nH]c3ncc(C4CCOCC4)nc23)CC1",
    "IC50 / nM": 4800
  },
  {
    "compound": "CN1CCC(c2cnc3[nH]cc(C4CCN(C(=O)c5ccc(S(F)(F)(F)(F)F)cc5)CC4)c3n2)CC1",
    "IC50 / nM": 96
  },
  {
    "compound": "O=C(c1ccc(OC(F)(F)F)cc1)N1CCC(c2c[nH]c3ncc(NC4CCOC4)nc23)CC1 (single isomer, unassigned; isomer 2) [Example 33]",
    "IC50 / nM": 126
  },
  {
    "compound": "O=C(c1ccc(OC(F)(F)F)cc1)N1CCC(c2c[nH]c3ncc(C4CCOCC4)nc23)C1 (racemic)",
    "IC50 / nM": 230
  },
  {
    "compound": "Nc1cc(OC(F)(F)F)ccc1C(=O)N1CCC(c2c[nH]c3ncc(C4CCN(C5CC5)CC4)nc23)CC1",
    "IC50 / nM": 28
  },
  {
    "compound": "Nc1cc(OC(F)(F)F)ccc1C(=O)N1CCC(c2c[nH]c3ncc(C4CCOC4)nc23)CC1 (single isomer, unassigned) [Example 14]",
    "IC50 / nM": 46
  },
  {
    "compound": "Nc1cc(S(F)(F)(F)(F)F)ccc1C(=O)N1CCC(c2c[nH]c3ncc(C4CCN(C5CC5)CC4)nc23)CC1",
    "IC50 / nM": 94
  },
  {
    "compound": "O=C(c1ccc(S(F)(F)(F)(F)F)cc1F)N1CCC(c2c[nH]c3ncc(C4CCOCC4)nc23)CC1",
    "IC50 / nM": 149
  },
  {
    "compound": "COCCCc1cnc2[nH]cc(C3CCN(C(=O)c4ccc(OC(F)(F)F)cc4)CC3)c2n1",
    "IC50 / nM": 118
  },
  {
    "compound": "O=C(c1ccc(OC(F)(F)F)cc1)N1CCC(c2c[nH]c3ncc(C4CCOC4)nc23)CC1 (racemic)",
    "IC50 / nM": 88
  },
  {
    "compound": "CN1CCC(c2cnc3[nH]cc(C4CCN(C(=O)c5ccc(OC(F)(F)F)cc5N)CC4)c3n2)CC1",
    "IC50 / nM": 20
  },
  {
    "compound": "COCCCc1cnc2[nH]cc(C3CCN(C(=O)c4ccc(OC(F)(F)F)cc4N)CC3)c2n1",
    "IC50 / nM": 56
  },
  {
    "compound": "Nc1cc(OC(F)(F)F)ccc1C(=O)N1CCC(c2c[nH]c3ncc(NC4CCOC4)nc23)CC1 (racemic) [Example 37]",
    "IC50 / nM": 60
  },
  {
    "compound": "O=C(c1ccc(C(F)(F)C(F)(F)F)cc1)N1CCC(c2c[nH]c3ncc(C4CCOCC4)nc23)CC1",
    "IC50 / nM": 279
  }
]
